Where do the numbers come from? From patent US5214046A.

test.system: 2,3-epoxysqualene-lanosterol cyclase (Candida albicans)
Sequence (Q04782 whole entry): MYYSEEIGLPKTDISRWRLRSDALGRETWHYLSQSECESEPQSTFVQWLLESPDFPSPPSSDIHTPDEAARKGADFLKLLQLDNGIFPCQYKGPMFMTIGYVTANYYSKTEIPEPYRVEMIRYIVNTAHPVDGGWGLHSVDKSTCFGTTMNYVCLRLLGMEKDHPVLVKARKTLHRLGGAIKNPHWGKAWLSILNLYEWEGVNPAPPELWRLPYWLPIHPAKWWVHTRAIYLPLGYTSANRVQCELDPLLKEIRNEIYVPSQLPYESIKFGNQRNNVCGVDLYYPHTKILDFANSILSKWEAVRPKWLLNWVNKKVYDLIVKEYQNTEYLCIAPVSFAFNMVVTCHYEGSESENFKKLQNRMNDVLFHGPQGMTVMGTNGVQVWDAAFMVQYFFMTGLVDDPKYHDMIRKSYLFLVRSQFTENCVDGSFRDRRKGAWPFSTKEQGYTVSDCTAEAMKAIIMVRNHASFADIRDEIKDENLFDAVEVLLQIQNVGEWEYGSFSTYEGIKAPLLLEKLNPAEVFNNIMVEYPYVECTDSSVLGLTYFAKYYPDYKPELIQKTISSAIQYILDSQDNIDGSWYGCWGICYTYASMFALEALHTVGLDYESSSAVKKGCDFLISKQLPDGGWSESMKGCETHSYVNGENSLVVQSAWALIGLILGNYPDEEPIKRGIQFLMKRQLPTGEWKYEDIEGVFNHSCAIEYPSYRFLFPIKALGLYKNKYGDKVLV
assay.explanation: Inhibition of 2,3-epoxysqualene-lanosterol cyclase from Candida albicans (cell-free extract, 14C-squalene epoxide)
Type: biochemical
pIC50: −log10 of the molar value.
compounds and their reported pIC50

| compound | pIC50 |
| --- | --- |
| C=CCN(C)CCCCCCOc1ccc(C(=O)Cc2ccccc2)cc1 [Compound 32] | 7.02 |
| C=CCN(C)C/C=C/COc1ccc(C(=O)c2ccc(Cl)cc2Cl)cc1 [Compound 42] | 7.75 |
| C=CCN(C)CCCCCCOc1ccc(C(=O)c2ccc(F)cc2)cc1 [Compound 33] | 7.08 |
| CN(C)CCCCOc1ccc(C(=O)c2ccccc2)cc1 [Compound 1] | 5.54 |
| C=CCN(C)CCCCCCOc1ccc(C(=O)c2cc(Cl)cc(Cl)c2)cc1 [Compound 37] | 6.09 |

* * *

test.system: UniProtKB Q04782
assay.explanation: Inhibition of 2,3-epoxysqualene-lanosterol cyclase from Candida albicans (cell-free extract, 14C-squalene epoxide)
Format: biochemical
pIC50: −log10 of the molar value.
compounds and their reported pIC50
metric.name: pIC50

| compound | quantitative.readout |
| --- | --- |
| C=CCN(C)CCCCCCOc1ccc(C(=O)c2ccccc2)cc1 [Compound 31] | 6.90 |
| C=CCN(C)CCCCCCOc1ccc(C(=O)c2cccc(C)c2C)cc1 [Compound 35] | 6.65 |
| C=CCN(C)CCCCCCOc1ccc(C(=O)c2ccc(Cl)cc2Cl)cc1 [Compound 36] | 6.88 |
| C=CCN(C)CCCCCCOc1ccc(C(=O)c2ccccc2)cc1Cl [Compound 39] | 7.19 |
| C=CCN(C)CCCCCCOc1ccc(C(=O)c2ccccc2)cc1C [Compound 34] | 7.06 |
| C=CCN(C)CCCCCCOc1ccc(C(=O)c2ccc(Cl)cc2Cl)cc1Cl [Compound 40] | 7.24 |
| C=CCN(C)C/C=C/COc1ccc(C(=O)c2ccccc2)cc1 [Compound 41] | 7.21 |
| C=CCN(C)CCCCCCOc1ccc(C(=O)c2ccc([N+](=O)[O-])cc2)cc1 [Compound 38] | 7.00 |
| O=C(c1ccccc1)c1ccc(OCCCCCCN2CCC2)cc1 [Compound 17, 4-[(6-(azetidinyl)hexyl)oxy]benzophenone] | 5.75 |
